Target: T1, human D374Y PCSK9 mutant (human, UniProt Q8NBP7 31-692, limits assumed)
T1 construct: It was biotinylated in the assay; also called biotinylated human D374Y PCSK9
T1 sequence (Q8NBP7 other isoform, or with tags, fused parts or gaps D374Y D374Y limits assumed): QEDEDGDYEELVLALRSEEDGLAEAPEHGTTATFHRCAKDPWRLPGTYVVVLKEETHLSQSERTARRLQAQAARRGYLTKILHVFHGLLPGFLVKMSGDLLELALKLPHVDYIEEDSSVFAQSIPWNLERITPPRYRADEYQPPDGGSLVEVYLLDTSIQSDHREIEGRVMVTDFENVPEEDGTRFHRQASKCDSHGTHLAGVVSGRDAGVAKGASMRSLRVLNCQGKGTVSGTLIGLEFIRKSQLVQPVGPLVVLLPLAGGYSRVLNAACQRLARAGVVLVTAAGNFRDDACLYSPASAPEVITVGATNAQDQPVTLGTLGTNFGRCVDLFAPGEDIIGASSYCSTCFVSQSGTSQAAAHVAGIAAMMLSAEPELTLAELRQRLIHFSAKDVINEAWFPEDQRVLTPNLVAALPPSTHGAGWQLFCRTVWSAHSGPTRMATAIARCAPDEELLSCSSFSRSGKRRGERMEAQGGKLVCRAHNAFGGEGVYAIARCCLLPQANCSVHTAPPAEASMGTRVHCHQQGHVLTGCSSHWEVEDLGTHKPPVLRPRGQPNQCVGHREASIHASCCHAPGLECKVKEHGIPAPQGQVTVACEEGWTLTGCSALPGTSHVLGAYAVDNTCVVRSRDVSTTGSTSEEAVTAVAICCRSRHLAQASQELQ
Assay: receptor-ligand blocking ELISA: supernatant pre-incubated with biotinylated D374Y PCSK9, binding to captured LDLR
metric: % R-L Inhibition (%)

[[record]]
binder = "101F7 (antibody, human IgG2, lambda, V domains shown, Fully human XenoMouse antibody; also called L1/H1; VL1/VH1) VH: QVQLVQSGAEVKKPGASVKVSCKASGYTFSSYGISWVRQAPGQGLEWMGWISAYNGNTNYAQKFQGRVTMTTDTSTSTAYMELRSLRSDDTAVYYCAREVRLAARPDHYYGMDVWGQGTTVTVSS VL: QSVLTQPPSVSAAPGQKVTISCSGSSSNIGINYVSWYQLLPGTAPKLLIYDNNKRPLGIPDRFSGSKSGTSATLGITGLQTGDETDYYCGTWDSSLSAWVFGGGTKLTVLG"
measured_result = 94

[[record]]
binder = "131D12 (antibody, human IgG2, lambda, V domains shown, Fully human XenoMouse antibody; also called L3/H3; VL3/VH2) VH: QGQLVESGGGVVQPGRSLRLSCAASGFTFSSYGMHWVRQAPGKGLEWVAVIWHDGSNKYYADSVKGRFTISRDNSKNTLYLQMNSLRAEDTAVYYCARVVPDNWNQDYYGMDVWGQGTTVTVSS VL: SYELTQPPSVSVSPGQTASITCSGDKLGDKYACWFQQKPGQSPVLVIYQDSKRPFGIPDRFSGSKSGNTATLTISGTQAMEEADYYCQAWDSSTAVFGGGTKLTVLG"
measured_result = 92

[[record]]
binder = "103B7 (antibody, human IgG2, lambda, V domains shown, Fully human XenoMouse antibody; also called L2/H2; VL2/VH1) VH: QVQLVQSGAEVKKPGASVKVSCKASGYTFSSYGISWVRQAPGQGLEWMGWISAYNGNTNYAQKFQGRVTMTTDTSTSTAYMELRSLRSDDTAVYYCAREVRLAARPDHYYGMDVWGQGTTVTVSS VL: QSVLTQPPSVSAAPGQKVTISCSGSSSNIGINYVSWYQLLPGTAPKLLIYDNNKRPLGIPDRFSGSKSGTSVTLGITGLQTGDEADYFCGTWDSNLSAWVFGGGTKLTVLG"
measured_result = 93

[[record]]
binder = "27B2 (antibody, human IgG2, lambda, V domains shown, Fully human XenoMouse antibody; Tested as hybridoma supernatant, the VH ends '...TTVTV' without the final 'SS'; also called 27B2.6; L4/H4) VH: QVQLVESGGGVVQPGRSLRLSCAASGFTFSSYGMHWVRQAPGKGLEWVAAIWYDGSNKYYAESVKGRFTISRDNSKYTLYLQVNSLRAEDTAVYYCARRGGLAARPGGLDVWGQGTTVTVAS VL: SYELTQPPSVSVSPGQTISISCSGDKLGDKNACWYQQKPGQSPGLVIYQDSKRPLGIPARFSGSNSGNTATLTISGTQAMDEADYYCQAWDISTVVFGGGTKLTVLG"
measured_result = 93

